Biological target: Guanine nucleotide-binding protein G(o) subunit alpha (Homo sapiens)
Assay: compounds changing RGS7 association with Galphao – biochemical, multiplexed bead flow cytometry, primary screen (AID 1439);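 note: fluorescent Galphao held in activated GDP-AlF4 state binding bead-coupled RGS7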
Conditions: at 10 µM, actives lie on both sides
Among all 220,000 compounds or so, about 770 (0.35%) were called active. Roughly 15% stayed inconclusive and do not appear here. Cut-off read from the data, not from the text of the source: active = binding response below about 49% or above about 150%; inconclusive = no clear call, values can overlap the other calls; inactive = in between. The list comes from a sample in which actives are over-represented; it also holds close analogues and randomly drawn compounds.
# output must be one of active, inactive

compound: COc1ccc(N2C(=O)/C(=C\c3ccco3)N=C2SCC(N)=O)cc1Cl
class_label: inactive
//
compound: Cc1c(CN2CCCC(C(=O)c3cccc(Cl)c3)C2)c(=O)n(-c2ccccc2)n1C (centres undefined)
class_label: active
//
compound: CC(Nc1nc(N2CCOCC2)nc2ccccc12)c1ccccc1 (centres undefined)
class_label: inactive

Shifting focus to the compound that follows.
What call does the record list for NC(=O)CSc1c[nH]c2ccccc12 ? active

###

Target: Guanine nucleotide-binding protein G(o) subunit alpha (Homo sapiens) (UniProt P09471)
Sequence (P09471 whole entry, looked up): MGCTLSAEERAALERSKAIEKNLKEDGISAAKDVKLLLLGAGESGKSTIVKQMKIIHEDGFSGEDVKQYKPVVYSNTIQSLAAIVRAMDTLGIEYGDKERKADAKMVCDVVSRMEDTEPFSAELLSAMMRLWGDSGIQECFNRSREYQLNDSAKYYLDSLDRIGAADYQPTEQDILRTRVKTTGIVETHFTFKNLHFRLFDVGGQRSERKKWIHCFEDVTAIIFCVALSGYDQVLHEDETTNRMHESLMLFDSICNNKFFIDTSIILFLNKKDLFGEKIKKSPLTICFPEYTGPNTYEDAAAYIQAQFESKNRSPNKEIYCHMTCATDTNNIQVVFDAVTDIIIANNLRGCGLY
Assay: compounds changing RGS7 association with Galphao – biochemical, multiplexed bead flow cytometry, primary screen (AID 1439);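 note: fluorescent Galphao held in activated GDP-AlF4 state binding bead-coupled RGS7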
Conditions: at 10 µM, actives lie on both sides
About 770 (0.35%) of roughly 220,000 compounds were called active. Roughly 15% stayed inconclusive and do not appear here. The list comes from a sample in which actives are over-represented; it also holds close analogues and randomly drawn compounds.
assay_metric: binding response (% of control)

// below: answered compounds
compound: CCCC(=O)N=c1sc2cccc(F)c2n1C
system_under_test: Guanine nucleotide-binding protein G(o) subunit alpha (Homo sapiens) (UniProt P09471)
binding response (% of control): 18% [inhibitor] (active)

compound: FC(F)Oc1ccccc1C1CC(c2ccc(Br)s2)Nc2ncnn21 (configuration not stated)
system_under_test: Guanine nucleotide-binding protein G(o) subunit alpha (Homo sapiens) (UniProt P09471)
binding response (% of control): 163% (active)

compound: Cc1c(C(=O)Nc2ccccc2Cl)oc2ccc(S(=O)(=O)N3CCC4(CC3)OCCO4)cc12
system_under_test: Guanine nucleotide-binding protein G(o) subunit alpha (Homo sapiens) (UniProt P09471)
binding response (% of control): 103% (inactive)

compound: COCCn1c(C)cc(C(=O)COC(=O)/C=C/c2cccc(OC)c2)c1C
system_under_test: Guanine nucleotide-binding protein G(o) subunit alpha (Homo sapiens) (UniProt P09471)
binding response (% of control): 92.8% (inactive)

compound: O=C(CSc1ccc2nnc(-c3ccccc3)n2n1)N1CCCc2ccccc21
system_under_test: Guanine nucleotide-binding protein G(o) subunit alpha (Homo sapiens) (UniProt P09471)
binding response (% of control): 207% (active)

compound: Cc1ccccc1CN1CCN(C(=O)c2cccc(F)c2)CC1
system_under_test: Guanine nucleotide-binding protein G(o) subunit alpha (Homo sapiens) (UniProt P09471)
binding response (% of control): 105% (inactive)

compound: Cc1cc(C)cc(N(CC(=O)Nc2c(C)n(C)n(-c3ccccc3)c2=O)S(C)(=O)=O)c1
system_under_test: Guanine nucleotide-binding protein G(o) subunit alpha (Homo sapiens) (UniProt P09471)
binding response (% of control): -21.3% [inhibitor] (active)

compound: CN1C(=O)/C(=C/c2ccc(C(=O)NC3CCCC3)cc2)Oc2ccccc21
system_under_test: Guanine nucleotide-binding protein G(o) subunit alpha (Homo sapiens) (UniProt P09471)
binding response (% of control): 98.8% (inactive)

compound: O=C(CN1CCCCCC1)N1c2ccccc2Sc2ccc(C(F)(F)F)cc21
system_under_test: Guanine nucleotide-binding protein G(o) subunit alpha (Homo sapiens) (UniProt P09471)
binding response (% of control): 89.4% (inactive)

compound: Cc1ccc(S(=O)(=O)/N=C(/Nc2ccc3[nH]c(=O)[nH]c3c2)c2ccccc2)cc1
system_under_test: Guanine nucleotide-binding protein G(o) subunit alpha (Homo sapiens) (UniProt P09471)
binding response (% of control): 104% (inactive)

Report measured binding response (% of control); entry is CCOc1ccccc1NC(=O)CCN1CCN(S(=O)(=O)c2ccc(OC)cc2)CC1 100% (inactive)

Quick one: give measured binding response (% of control) for CC(C)(C)C(=O)CN1C2=NCCN2c2ccccc21 109% (inactive)

Please give the documented binding response (% of control) of CN(C)c1ccc(/C=N/NC(=O)C(O)c2ccc(Br)cc2)cc1 (configuration not stated) 101% (inactive)

Supply binding response (% of control) value. Item: COC(=O)c1ccccc1OCC(=O)N1CCN(c2ccc(Cl)cc2)CC1 290% (active)

Assign binding response (% of control) to the following record: Cc1ccc(N(CC(O)CN2CCCC2)S(=O)(=O)c2ccccc2)cc1 (configuration not stated) 99.4% (inactive)

Supply binding response (% of control) value. Item: O=C(CN1CCN(c2ccc(Cl)cc2)CC1)N1CCCC1 102% (inactive)

Report measured binding response (% of control); entry is O=C(CN1CCCCC1)N1c2ccccc2Sc2ccc(C(F)(F)F)cc21 27.5% [inhibitor] (active)
